- target_of_assay: Adenosine receptor A1 (Homo sapiens)
- Sequence (P30542 whole entry): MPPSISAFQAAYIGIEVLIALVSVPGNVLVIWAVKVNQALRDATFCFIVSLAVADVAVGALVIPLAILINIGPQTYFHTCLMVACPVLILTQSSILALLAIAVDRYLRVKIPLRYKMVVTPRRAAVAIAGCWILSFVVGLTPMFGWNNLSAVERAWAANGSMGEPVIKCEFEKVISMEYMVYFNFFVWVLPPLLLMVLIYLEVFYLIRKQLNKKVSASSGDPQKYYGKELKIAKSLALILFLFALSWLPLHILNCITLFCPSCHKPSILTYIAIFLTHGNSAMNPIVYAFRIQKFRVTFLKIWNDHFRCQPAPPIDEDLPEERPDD
- test_protocol: Displacement of [3H]DPCPX from human Adenosine A1 receptor expressed in CHO cells; range 332-479
- Format: cell-based
measured_endpoint: Ki (nM)

INSERT INTO assay_data (smiles_data, test_result) VALUES
  ('Cn1cc2c(nc(NC(=O)Nc3ccccc3Cl)n3nc(-c4ccco4)nc23)n1', 400);

###

- target_of_assay: Adenosine receptor A2a (Homo sapiens)
- Sequence (P29274 whole entry): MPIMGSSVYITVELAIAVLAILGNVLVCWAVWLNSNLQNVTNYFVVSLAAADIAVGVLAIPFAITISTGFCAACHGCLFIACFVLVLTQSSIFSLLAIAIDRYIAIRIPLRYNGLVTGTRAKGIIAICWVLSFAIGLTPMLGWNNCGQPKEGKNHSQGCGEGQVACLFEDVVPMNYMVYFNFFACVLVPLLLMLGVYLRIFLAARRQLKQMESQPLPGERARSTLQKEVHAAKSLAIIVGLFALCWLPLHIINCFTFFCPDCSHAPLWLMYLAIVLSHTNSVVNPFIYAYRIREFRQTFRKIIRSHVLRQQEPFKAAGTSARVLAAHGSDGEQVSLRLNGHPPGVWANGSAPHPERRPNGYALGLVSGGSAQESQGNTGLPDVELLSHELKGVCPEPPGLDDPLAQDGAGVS
- test_protocol: Displacement of [3H]SCH-58261 from human Adenosine A2A receptor expressed in HEK293 cells; range 114-170
- Assay type: cell-based
pKi: −log10 of the molar value.
measured_endpoint: pKi

INSERT INTO assay_data (smiles_data, test_result) VALUES
  ('CCn1cc2c(nc(NC(=O)Nc3cccc(OC)c3)n3nc(-c4ccco4)nc23)n1', 6.85);
